- test target: Autotaxin (ENPP2, NPP2) (Homo sapiens, UniProt Q13822 Q13822:36-863)
- assay comment: inhibition
Entries and their measured IC50 follow.

>  <binder>
UCUGAGGGAAACAGGUUUUGCUCCUCGGA (mixed, as 16(4) with dT19) [SEQ 16(16)]

>  <IC50, nM>
45

$$$$
>  <binder>
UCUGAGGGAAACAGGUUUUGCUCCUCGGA (mixed, as 16(38) with 5' 40 kDa PEG (GL2-400GS2)-ssH linker instead of 5' idT) [SEQ 16(39)]

>  <IC50, nM>
3.8

$$$$
>  <binder>
UCUGAGGGGAACAGGUUUUGCUCCUCGGA (ssRNA, 2'-F pyrimidines, 2'-OH purines) [SEQ 33]

>  <IC50, nM>
690

$$$$
>  <binder>
CCGCUCUGAGGGAAACAGGUUUUGCUCCUCGGAGCGG (ssRNA, 2'-F pyrimidines, 2'-OH purines) [SEQ 15]

>  <IC50, nM>
7

$$$$
>  <binder>
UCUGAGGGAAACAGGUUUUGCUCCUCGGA (ssRNA, as 16(4) with 5' 40 kDa PEG (GL2-400TS)-ssH linker instead of 5' idT) [SEQ 16(8)]

>  <IC50, nM>
42

$$$$
>  <binder>
UCUGAGGGUAACAGGUUAUGCUCCUCGGA (ssRNA, 2'-F pyrimidines, 2'-OH purines) [SEQ 26]

>  <IC50, nM>
510

$$$$
>  <binder>
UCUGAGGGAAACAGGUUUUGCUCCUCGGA (mixed, as 16(4) with dT17) [SEQ 16(18)]

>  <IC50, nM>
29

$$$$
>  <binder>
UCUGAGGGAAACAGGUCUUGCUCCUCGGA (ssRNA, 2'-F pyrimidines, 2'-OH purines) [SEQ 41]

>  <IC50, nM>
43

$$$$
